Provide the recorded inhibition at 20 µM for the entries that follow.
target: KRas G12D/Q61H double mutant (Homo sapiens (Human), UniProt P01116, G12D/Q61H); assay: Ras GTP binding domain inhibition assay (labeled GTP); conditions: 20 μM compound; KRas G12D/Q61H double mutant; read-out: % Inhibition at 20 μM of K-Ras mutant and wild-type protein, KRas G12D Q61H
Sequence (P01116-2 other isoform, or with tags, fused parts or gaps G12D/Q61H): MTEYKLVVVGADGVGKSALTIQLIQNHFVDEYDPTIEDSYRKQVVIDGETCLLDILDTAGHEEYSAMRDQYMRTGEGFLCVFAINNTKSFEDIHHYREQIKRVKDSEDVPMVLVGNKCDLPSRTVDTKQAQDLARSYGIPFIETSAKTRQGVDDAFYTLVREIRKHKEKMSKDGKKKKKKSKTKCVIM

COC(=O)c1nc(-c2ccccn2)nc(O)c1O [drawing 3547] has a reported inhibition at 20 µM of 51 to 75%

COC(=O)C1CCN(S(=O)(=O)NCCOc2ccc(C(C)(C)C)cc2)CC1 has a reported inhibition at 20 µM of 25 to 50%

Cn1cnc(-c2nc(O)c3c(-c4ccccc4)c(-c4ccncc4)sc3n2)c1 [drawing 3528] has a reported inhibition at 20 µM of 1 to 25%

Oc1nc(-c2ccccn2)nc2c(-c3ccccc3)c(-c3ccncc3)sc12 [drawing 3548] has a reported inhibition at 20 µM of 0%

Oc1nc(-c2ccccn2)nc2c3c(sc12)CNC3 [drawing 3477] has a reported inhibition at 20 µM of 51 to 75%

OCCN(Cc1ccc(Cl)c(Cl)c1)c1ncc(Br)cn1 has a reported inhibition at 20 µM of 1 to 25%

Cc1sc2c(O)nc(-c3ccccn3)nc2c1C(=O)N1CCN(c2ccccc2)CC1C (centres unmarked) [drawing 3509] has a reported inhibition at 20 µM of 51 to 75%

CC(C)c1ccc(-c2nc(C(=O)NC(C)c3ccccn3)cs2)cc1 (centres unmarked) has a reported inhibition at 20 µM of 25 to 50%

CCC(C)N(C(=O)CS(=O)(=O)c1nc(-c2ccccc2)cs1)C(C)CC (centres unmarked) has a reported inhibition at 20 µM of 25 to 50%

Nc1nc(O)c2sc(-c3cccc(C(=O)NCc4cccc(O)n4)c3)cc2n1 [drawing 3546] has a reported inhibition at 20 µM of 0%

Oc1nc(-c2ccccn2)nc2c(-c3cncnc3)csc12 [drawing 3504] has a reported inhibition at 20 µM of 1 to 25%

COc1ccc(OCCCn2c(C(F)(F)F)c(Br)cnc2=O)cc1 has a reported inhibition at 20 µM of 25 to 50%

Oc1nc(-c2ccccn2)nc2cc(-c3ccccc3)sc12 [drawing 3562] has a reported inhibition at 20 µM of 51 to 75%

Cc1cccc(-n2ccnc2SCCCc2nc(-c3cccs3)no2)c1 has a reported inhibition at 20 µM of 25 to 50%

CCCCc1ccc([N+]2=C3SCCCN3CC2(O)c2ccc(C)cc2)cc1 (centres unmarked) has a reported inhibition at 20 µM of 25 to 50%

COC(=O)c1c(NC(=O)Cc2cc(OC)c(OC)c(OC)c2)sc2c1CCCCC2 has a reported inhibition at 20 µM of 25 to 50%

COc1ccc(CCNc2nc(-c3cc(C)n(-c4ncn[nH]4)c3C)cs2)cc1OC has a reported inhibition at 20 µM of 25 to 50%
